B1: library; a variant is named by its letters at N, in order (parent)
chain: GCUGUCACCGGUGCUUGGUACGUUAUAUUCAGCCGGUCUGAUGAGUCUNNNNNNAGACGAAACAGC

- Variants of: B1
- TEST PROTOCOL: FACS-Seq fitted mean relative fluorescence mCherry/BFP without ligand (log10 relative fluorescence); HEK293T overexpressing SLC46A1; higher = higher reporter protein expression
- APPLIED CONDITIONS: without (6R,S)-folinic acid; ligand present: no
Parameter threshold = 0.4. Response is true when FACS-Seq fitted mean (log10) meets or exceeds it, else false.

[
  {
    "MUTANT DESIGNATION": "GUUGGA",
    "CLASS LABEL": "true"
  },
  {
    "MUTANT DESIGNATION": "AUGAUU",
    "CLASS LABEL": "true"
  },
  {
    "MUTANT DESIGNATION": "UGAGAG",
    "CLASS LABEL": "false"
  },
  {
    "MUTANT DESIGNATION": "CGGAAU",
    "CLASS LABEL": "false"
  },
  {
    "MUTANT DESIGNATION": "UGAAAC",
    "CLASS LABEL": "true"
  }
]

# ---- query variant ----
Would you say UAAUAU shows FACS-Seq fitted mean (log10) at minimum 0.4?
false
